Kindly state apparent KD of K4 kissing-loop reporter for each of the entries shown.
- System: K4 kissing-loop RNA reporter;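 note: bound reporter read as fluorescence of individual clusters on recovered sequencing chips by microscopy, with normalized cluster intensities fitted with a binding model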
- test-description: apparent KD of K4 kissing-loop reporter; higher = weaker reporter binding
- setup-conditions: Eterna round: R107; input ligand: theophylline 20 uM
Could you give me the number in nM? Just the number is fine.

Reported apparent KD of K4 kissing-loop reporter for UUCAGUGACAUACGAGUGAUGUUCGUAAUACGAGGACCGGUACGGCCGCCACUCGCACGUCGGCAGUUUGUUCAUGCAUCAGACU : what is it?
255

Looking for the measured apparent KD of K4 kissing-loop reporter of AUAUAGAGUGAUGUUCAUGAGUAUUUCGAAGGAGCGCUAAAUAAGGCAGGUAGGUCGCGGAAAAUAUAUAUAUAGAUAUAUAUAU [KL-SSArg-A29] , can you help?
665

Fill in the blank: the reported apparent KD of K4 kissing-loop reporter of UGUCAUUGGUCGGCCGCCACUUUAUAUGGAGUGAUGUUUUGUAGAUUGUGUUGAAAGGUGUGGUGAAGGACCGGGACCGAUGACU [FiskerMod 25 - Jieux - Same State - Tryptophan B] is ____.
1010

Would you mind telling me what apparent KD of K4 kissing-loop reporter value was observed for AGGAGCGUGGGAUGGAAAUCGCACGCUCCUCGAGGACCGGUACGGCCGCCACUCGCUCGCGCCGAGUGAUGUUCGGCCGGCGAAG [#2 Same State - Tryptophan A Attempt #15 (HarryS)] ?
129

Name the recorded apparent KD of K4 kissing-loop reporter for UGACUGGACUGAAGGAGCGCUAAACUCCUAGUGAUGUUAGGAAAACGAGACAAAGUCUCGAGGCAGGUAGGUCGCAGUCUAGUCU [ArgBS 18 #SwitchBubble #StaticStem] .
128
